The following binders are shown together with reported fold change of affinity values.
Target: T1, Human CD137 ECD (human)
T1 construct: entry includes C-terminal His-tag and biotin acceptor peptide; also called human CD137 extracellular domain; 4-1BB
T1 sequence (chain, as listed by the source limits assumed): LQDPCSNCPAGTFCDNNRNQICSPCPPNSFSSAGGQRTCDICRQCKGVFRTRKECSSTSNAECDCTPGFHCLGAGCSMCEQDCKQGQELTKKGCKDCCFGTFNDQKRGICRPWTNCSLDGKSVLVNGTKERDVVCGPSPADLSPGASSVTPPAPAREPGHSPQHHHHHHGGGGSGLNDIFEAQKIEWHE
Assay: Biacore SPR, vs parent H183/L072
Give your result as the value with the unit written after it.

H183/L072 VL H27dS (antibody, name in Kabat numbering, V domains shown, Dual-Ig) VH: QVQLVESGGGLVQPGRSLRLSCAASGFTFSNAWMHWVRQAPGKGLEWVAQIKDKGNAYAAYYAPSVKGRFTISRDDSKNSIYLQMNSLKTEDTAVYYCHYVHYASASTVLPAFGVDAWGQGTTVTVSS VL: DIVMTQSPLSLPVTPGEPASISCQASQELVSMNRNTYLHWYQQKPGQAPRLLIYKVSNRFPGVPDRFSGSGSGTDFTLKISRVEAEDVGVYYCAQGTSVPFTFGQGTKLEIK	0.6 fold
H183/L072 VL V94A (antibody, name in Kabat numbering, V domains shown, Dual-Ig) VH: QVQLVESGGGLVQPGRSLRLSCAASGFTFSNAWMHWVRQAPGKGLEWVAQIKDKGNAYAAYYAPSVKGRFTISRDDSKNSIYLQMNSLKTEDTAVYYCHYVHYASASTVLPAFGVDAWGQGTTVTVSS VL: DIVMTQSPLSLPVTPGEPASISCQASQELVHMNRNTYLHWYQQKPGQAPRLLIYKVSNRFPGVPDRFSGSGSGTDFTLKISRVEAEDVGVYYCAQGTSAPFTFGQGTKLEIK	0.1 fold

Could you now consider this next binder?
// fold change of affinity lookup, binder = H183/L072 VL H27dE (antibody, name in Kabat numbering, V domains shown, Dual-Ig) VH: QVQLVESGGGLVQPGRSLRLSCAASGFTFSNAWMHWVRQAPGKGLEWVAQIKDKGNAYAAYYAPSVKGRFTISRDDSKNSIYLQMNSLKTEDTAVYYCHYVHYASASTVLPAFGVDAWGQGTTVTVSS VL: DIVMTQSPLSLPVTPGEPASISCQASQELVEMNRNTYLHWYQQKPGQAPRLLIYKVSNRFPGVPDRFSGSGSGTDFTLKISRVEAEDVGVYYCAQGTSVPFTFGQGTKLEIK , result: 0.6 fold
